Test system: subgenomic HCV replicons I389luc-ubi-neo/NS3-3′/5.1 (Huh 5-2)
Assay: Anti-HCV assay in Huh 5-2 cells (luciferase replicon)
Format: cell-based, hepatitis C virus (HCV)
Settings: Hepatitis C virus, Huh-5-2, 96 h, read-out: HCV Huh 5-2 EC50, Huh 5-2 cells, 4 days incubation, concentration that reduced the luciferase signal by 50%
// reported EC50 for each item listed
assay_endpoint: EC50

[
  {
    "compound": "C[C@H](NP(=O)(OC[C@H]1O[C@@H](n2cnc3c(=O)[nH]c(N)nc32)C(C)(O)C1O)Oc1ccccc1)C(=O)OCc1ccccc1 (stereo partly drawn)",
    "recorded_value": "36000 nM"
  },
  {
    "compound": "C[C@H](NP(=O)(OC[C@H]1O[C@@H](n2cnc3c(N)ncnc32)C(C)(O)C1O)Oc1cccc2ccccc12)C(=O)OCc1ccccc1 (stereo partly drawn)",
    "recorded_value": "160 nM"
  },
  {
    "compound": "C[C@H](NP(=O)(OC[C@H]1O[C@@H](n2cnc3c(N)ncnc32)C(C)(O)C1O)Oc1cccc2ccccc12)C(=O)OC(C)(C)C (stereo partly drawn)",
    "recorded_value": "2360 nM"
  }
]
